These measurements were taken from patent US20170226121A1.

SYSTEM NAME: labeled HBV core protein dimer, Cp150Bo (Hepatitis B virus genotype D subtype adw, UniProt P03147, C107A/C48A/C61A/R150C)
Sequence (P03147 1-150 C48A/C61A/C107A/R150C): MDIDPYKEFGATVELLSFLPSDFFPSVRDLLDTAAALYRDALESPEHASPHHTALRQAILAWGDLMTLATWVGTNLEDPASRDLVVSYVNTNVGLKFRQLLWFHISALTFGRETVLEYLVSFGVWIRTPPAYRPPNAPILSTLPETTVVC
PROTOCOL TEXT: Fluorescence quenching assay of HBV assembly
Assay type: biochemical
PARTICULARS: single time point 24 hr after assembly initiated with NaCl; about 30±15% assembly without stimulation
Here, each record is paired with measured Assembly data.

{"MOLECULE": "COC(=O)C1=C(C(C)C)NC(c2ccccn2)=NC1c1ccc(F)cc1Cl (stereo not shown)", "Assembly [%]": 70}
{"MOLECULE": "C#CCNC(=O)CCCC(=O)N1CCN(CC2=C(C(=O)OC)C(c3ccc(F)cc3Cl)N=C(c3ccccn3)N2)CC1 (stereo not shown)", "Assembly [%]": 133}
{"MOLECULE": "COC(=O)C1=C(CN2CCCCC2)NC(c2ccccn2)=NC1c1ccc(F)cc1Cl (stereo not shown)", "Assembly [%]": 60}
{"MOLECULE": "C#CCNCC1=C(C(=O)OC)C(c2ccc(F)cc2Cl)N=C(c2ccccn2)N1 (stereo not shown)", "Assembly [%]": 65}
{"MOLECULE": "CCOC(=O)C1=C(CNCC23CC4CC(CC(C4)C2)C3)NC(c2ccccn2)=NC1c1ccc(F)cc1Cl (stereo not shown)", "Assembly [%]": 42}
{"MOLECULE": "CCOC(=O)C1=C(CNC23CC4CC(CC(C4)C2)C3)NC(c2ccccn2)=NC1c1ccc(F)cc1Cl (stereo not shown)", "Assembly [%]": 49}
{"MOLECULE": "COC(=O)C1=C(CNCCOCCOCCN=[N+]=[N-])NC(c2ccccn2)=NC1c1ccc(F)cc1Cl (stereo not shown)", "Assembly [%]": 49}

---

System: HBV production in HepAD38 (AD38) cells
PROTOCOL TEXT: Antiviral activity, inducible HBV expression system, AD38 cells
Type: cell-based, hepatitis B virus
PARTICULARS: Hepatitis B virus, HePAD38; suppression of HBV production by 50%; read-out: HepAD38 EC50

{"MOLECULE": "Nc1ccn([C@@H]2CS[C@H](CO)O2)c(=O)n1 [Compound 3TC, lamivudine, reference compound]", "EC50 [nM]": 60}

---

SYSTEM NAME: labeled HBV core protein dimer, Cp150Bo (Hepatitis B virus genotype D subtype adw, UniProt P03147, C107A/C48A/C61A/R150C)
PROTOCOL TEXT: Fluorescence quenching assay of HBV assembly
Assay type: biochemical
PARTICULARS: single time point 24 hr after assembly initiated with NaCl; about 30±15% assembly without stimulation
READOUT: Assembly (%)

{"COMPOUND": "COC(=O)C1=C(CCl)NC(c2ccccn2)=NC1c1ccc(F)cc1Cl (centres unmarked) [HAP2, reference compound]", "OBS VALUE": 99}
{"COMPOUND": "COC(=O)C1=C(CN2CCN(CCOCCOCCN=[N+]=[N-])CC2)NC(c2ccccn2)=NC1c1ccc(F)cc1Cl (centres unmarked) [Compound B74]", "OBS VALUE": 21}
{"COMPOUND": "COC(=O)C1=C(CN2CCN(Cc3ccccn3)CC2)NC(c2ccccn2)=NC1c1ccc(F)cc1Cl (centres unmarked) [Compound B-55]", "OBS VALUE": 60}
{"COMPOUND": "COC(=O)C1=C(C)NC(c2ccccn2)=NC1c1ccc(F)cc1Cl (centres unmarked) [Compound B-6]", "OBS VALUE": 95}
{"COMPOUND": "COC(=O)C1=C(CN2CCN(CCOCCN=[N+]=[N-])CC2)NC(c2ccccn2)=NC1c1ccc(F)cc1Cl (centres unmarked) [Compound B72]", "OBS VALUE": 29}
{"COMPOUND": "C#CCOCC1(COCC#C)COC2(CCN(CC3=C(C(=O)OC)C(c4ccc(F)cc4Cl)N=C(c4ccccn4)N3)CC2)OC1 (centres unmarked) [Compound B67]", "OBS VALUE": 84}
{"COMPOUND": "COC(=O)C1=C(CN2CCN(Cc3ccc(Br)cc3)CC2)NC(c2ccccn2)=NC1c1ccc(F)cc1Cl (centres unmarked) [Compound B-54]", "OBS VALUE": 21}
{"COMPOUND": "COC(=O)C1=C(C)NC(c2ccccc2)=NC1c1ccc(F)cc1Cl (centres unmarked) [Compound B-7]", "OBS VALUE": 96}

---

Here, each record is paired with measured CC50 data.
System: HepG2
PROTOCOL TEXT: in vitro
Experimental: Antiviral activity was measured using an inducible HBV expression system, AD38 cells. (Ladner, S. K. et al., Antimicrob Agents Chemother 41, 1715-20 (1997)). Initial experiments tested the activity of 10 μM HAP (percentage viral assembly at 24 hour). For active molecules, effective concentrations were determined for suppression of HBV production by 50% and by 90%; this value is reported in μM. Compound toxicity was tested in the parent cell line, HepG2. […]

{"MOLECULE": "COC(=O)C1=C(CN2CCN(C(=O)CCCC(=O)NCCCN=[N+]=[N-])CC2)NC(c2ccccn2)=NC1c1ccc(F)cc1Cl (stereo not shown) [Compound B-070]", "CENSORING QUALIFIER": "=", "CC50, µM": 8.4}
{"MOLECULE": "COC(=O)C1=C(CN2CCOCC2)NC(c2ccccn2)=NC1c1ccc(F)cc1Cl (stereo not shown) [Compound B-061]", "CENSORING QUALIFIER": ">", "CC50, µM": 100}
{"MOLECULE": "C#CCCCCN1CCN(CC2=C(C(=O)OC)C(c3ccc(F)cc3Cl)N=C(c3ccccn3)N2)CC1 (stereo not shown) [Compound B-073]", "CENSORING QUALIFIER": "=", "CC50, µM": 3.7}
{"MOLECULE": "COC(=O)C1=C(CN2CCNC(=O)CC2)NC(c2ccccn2)=NC1c1ccc(F)cc1Cl (stereo not shown) [Compound B-120]", "CENSORING QUALIFIER": "=", "CC50, µM": 32}

---

SYSTEM NAME: labeled HBV core protein dimer, Cp150Bo (Hepatitis B virus genotype D subtype adw, UniProt P03147, C107A/C48A/C61A/R150C)
PROTOCOL TEXT: Fluorescence quenching assay of HBV assembly
Format: biochemical
PARTICULARS: single time point 24 hr after assembly initiated with NaCl; about 30±15% assembly without stimulation
Rule: yes (1) for Assembly not less than 50%, no (0) for anything less.

{"COMPOUND": "COC(=O)C1=C(CN2CCOCC2)NC(c2ccncc2)=NC1c1ccc(F)cc1Cl (stereo not shown) [Compound B76]", "ASSIGNED CATEGORY": "no (0)"}
{"COMPOUND": "COC(=O)C1=C(C)NC(c2ccccn2)=NC1c1ccc(F)cc1Br (stereo not shown) [Compound B-18]", "ASSIGNED CATEGORY": "yes (1)"}
{"COMPOUND": "C#CCCCCN1CCN(CC2=C(C(=O)OC)C(c3ccc(F)cc3Cl)N=C(c3ccccn3)N2)CC1 (stereo not shown) [Compound B-073]", "ASSIGNED CATEGORY": "yes (1)"}
{"COMPOUND": "COC(=O)C1=C(CN2CCNC(=O)CC2)NC(c2ccccn2)=NC1c1ccc(F)cc1Cl (stereo not shown) [Compound B-120]", "ASSIGNED CATEGORY": "yes (1)"}
{"COMPOUND": "CCOC(=O)C1=C(c2ccccn2)NC(c2ccccn2)=NC1c1ccc(F)cc1Cl (stereo not shown) [Compound B-23]", "ASSIGNED CATEGORY": "no (0)"}
{"COMPOUND": "COC(=O)C1=C(CCl)NC(c2ccccn2)=NC1c1ccc(F)cc1Cl (stereo not shown) [Compound B-25]", "ASSIGNED CATEGORY": "yes (1)"}
{"COMPOUND": "COC(=O)C1=C(CN2CCN(CC3CCCCC3)CC2)NC(c2ccccn2)=NC1c1ccc(F)cc1Cl (stereo not shown) [Compound B-56]", "ASSIGNED CATEGORY": "no (0)"}
{"COMPOUND": "C#CC(O)(C#C)C1CCN(CC2=C(C(=O)OC)C(c3ccc(F)cc3Cl)N=C(c3ccccn3)N2)CC1 (stereo not shown) [Compound B-59]", "ASSIGNED CATEGORY": "yes (1)"}
{"COMPOUND": "COC(=O)C1=C(C)NC(c2ccc(Br)cn2)=NC1c1ccc(F)cc1Cl (stereo not shown) [Compound B-17]", "ASSIGNED CATEGORY": "yes (1)"}
{"COMPOUND": "CC1=C(C(=O)NCc2cn(CCN3C(=O)c4ccccc4C3=O)nn2)C(c2ccc(F)cc2Cl)N=C(c2ccncc2)N1 (stereo not shown) [Compound B-13]", "ASSIGNED CATEGORY": "yes (1)"}
{"COMPOUND": "COC(=O)C1=C(CN2CCNCC2)NC(c2ccccn2)=NC1c1ccc(F)cc1Cl (stereo not shown) [Compound B-36]", "ASSIGNED CATEGORY": "yes (1)"}
{"COMPOUND": "CC1=C(C(=O)OCCC2CCC(CNS(=O)(=O)c3cccc4c(N(C)C)cccc34)C2)C(c2ccc(F)cc2Cl)N=C(c2ccncc2)N1 (stereo not shown) [Compound B-5]", "ASSIGNED CATEGORY": "yes (1)"}
{"COMPOUND": "C#CCOC(=O)C1=C(C)NC(c2ccccn2)=NC1c1ccc(F)cc1Cl (stereo not shown) [Compound B-12]", "ASSIGNED CATEGORY": "yes (1)"}
{"COMPOUND": "COC(=O)C1=C(CN2CCN(C(=O)CCCC(=O)NCCCN=[N+]=[N-])CC2)NC(c2ccccn2)=NC1c1ccc(F)cc1Cl (stereo not shown) [Compound B-070]", "ASSIGNED CATEGORY": "yes (1)"}
{"COMPOUND": "COC(=O)C1=C(C)NC(c2nc3ccc(OC)cc3s2)=NC1c1ccc(F)cc1Cl (stereo not shown) [Compound B-4]", "ASSIGNED CATEGORY": "yes (1)"}
